Just for reference, ChEMBL document CHEMBL1201862 is where these values come from.

# Tested on: COLO 205
# experiment_summary: NCI tumour cell line growth inhibition, 48 h
The source made the active and inactive calls. Rule as the data show it: active = GI50 up to about 1.1 µM and inactive = higher.
Please reply with one of these outcomes: T for active, F for inactive

# molecule, discrete_label
records = [
    ("CC(=O)c1ccc2c3c1[C@@H]1O[C@@H]1c1cccc(c1-3)[C@@H]1O[C@H]21", "F"),
    ("CCOC(=O)CN.CCOC(=O)Nc1ccc(S(=O)(=O)OC)cc1.CCOC(=O)Nc1ccc(S(=O)(=O)OC)cc1", "F"),
    ("COc1ccc(-c2c3ccccc3c(-c3ccc(OCCCCCBr)cc3)c3ccccc23)cc1", "F"),
    ("COC(CNC(=O)C(C)NC(=O)C(C)NC(=O)c1ccccc1)OC (stereo not given)", "F"),
    ("CN(C)CCNc1nc2c(no[n+]2[O-])c2ccccc12.[O-][Cl+3]([O-])([O-])O", "F"),
]

QUERY: Give the logged outcome of this assay for the following molecule: N#CC1(C2SCC[S+]2[O-])C2=C(C(=O)c3ccccc3C2=O)N2CCCC21 (stereo not given)
RESULT: F

QUERY: Which result was noted for this molecule in the test: N[C@H]1c2c(Br)sc(Br)c2C(=O)[C@H]1O
RESULT: F
